Test system: durch das chemotaktisch wirkende FMLP stimulierte Aggregation von PMN-Leukozyten
Test: Inhibition of FMLP-stimulated aggregation of PMN leukocytes (method of Cunningham et al.)
Type: cell-based
Conditions: Leukocyte
endpoint_label: IC50
Write down the value, and be sure its unit follows.

Q. Let me know recorded IC50 for O=C1C(O)=C(NCc2ccccc2)C(=O)c2ccccc21 [Verb. 1] , thanks.
A. 37 µM

====

Test system: Metabolisierung der Arachidonsäure über den Cyclooxygenaseweg
Experiment: Inhibition of arachidonic acid metabolism via the cyclooxygenase pathway (method of Brune et al.)
Format: cell-based
endpoint_label: IC50
Write down the value, and be sure its unit follows.

Q. Let me know recorded IC50 for O=C1C(O)=C(NCc2ccccc2)C(=O)c2ccccc21 [Verb. 1] , thanks.
A. 2.6 µM

Data provenance is patent EP0149818A2.
